Exercise: state measured SPOT peptide array binding signal intensity for each of the binders provided.
# Assayed Target: AgNbp2
# Assay Name: SPOT peptide array binding signal intensity (averaged, normalized) (arbitrary units (background-subtracted, floor 0; scale differs between SH3 domains)); higher = stronger binding of the SH3 domain to the peptide

Binder	Recorded Measurement
FTLPPPPPPPGLDEL	≤ 0
NFKRLLPRDPSEKSS	≤ 0
DGNEEKPLLPTRPNK	≤ 0
NENKKLPPAPTVFGL	≤ 0

Here's the next entry for you.
Look up SPOT peptide array binding signal intensity for this binder: `APKHAPPPVPNETDN`
≤ 0
